Target: human Dopamine D1 receptor (Homo sapiens)
Construct: expressed in transfected cells; host or cells: Ltk- cells (mouse fibroblasts), membrane preparation
Sequence (P21728 whole entry): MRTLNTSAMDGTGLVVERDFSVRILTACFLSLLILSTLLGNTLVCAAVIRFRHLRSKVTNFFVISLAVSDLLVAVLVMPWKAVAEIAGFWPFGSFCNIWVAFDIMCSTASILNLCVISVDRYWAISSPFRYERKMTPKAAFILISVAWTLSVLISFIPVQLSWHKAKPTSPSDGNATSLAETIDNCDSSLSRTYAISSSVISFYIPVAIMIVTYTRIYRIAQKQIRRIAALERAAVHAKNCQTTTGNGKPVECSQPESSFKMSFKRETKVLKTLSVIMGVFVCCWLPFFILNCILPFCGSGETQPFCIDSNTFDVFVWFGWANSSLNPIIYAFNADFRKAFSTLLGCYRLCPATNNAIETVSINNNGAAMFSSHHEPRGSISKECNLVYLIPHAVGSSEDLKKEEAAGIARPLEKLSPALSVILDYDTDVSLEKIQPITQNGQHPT
Assay: radioligand binding competition assay, displacement of [3H]SCH 23390 from D1 receptor (Ltk-cells membranes);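 also: under 5 nM class also requires D2 to D1 selectivity above 500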
Settings: class combines Ki (D1) and, for A and B, D2:D1 selectivity (Ki D2 / Ki D1); read-out: D1 binding and D2:D1 Selectivity
# Lookup of reported Ki keyed by entry

For orientation, consider the following solved cases.
>  <compound>
Cc1ccc(NC(=N)/C=C/c2ccc(Cc3cccnc3)cc2)cc1 [Example 31]

>  <observed property>
Ki

>  <test value>
10 to 50 nM

$$$$
>  <compound>
N=C(/C=C/c1ccccc1Cl)Nc1ccc(Cl)cc1 [Example 73]

>  <observed property>
Ki

>  <test value>
10 to 50 nM

$$$$
>  <compound>
COc1ccc(/C=C/C(=N)Nc2ccc(Cl)cc2)c(Cl)c1OC [Example 29]

>  <observed property>
Ki

>  <test value>
10 to 50 nM

$$$$
>  <compound>
N=C(/C=C/c1ccc(-c2ccc(C=O)cc2)cc1)Nc1ccc(Cl)cc1 [Example 44]

>  <observed property>
Ki

>  <test value>
< 10 nM

$$$$
>  <compound>
N=C(/C=C/c1ccc2ccccc2c1)Nc1ccc(Cl)cc1 [Example 78]

>  <observed property>
Ki

>  <test value>
50 to 10000 nM

$$$$
>  <compound>
N=C(/C=C/c1ccc(N2CCN(c3cccc(Cl)c3)CC2)cc1)Nc1ccc(Cl)cc1 [Example 93]

>  <observed property>
Ki

>  <test value>
50 to 10000 nM

$$$$
>  <compound>
N=C(/C=C/c1ccc(-c2ccc(CN3CCN(Cc4ccccc4)CC3)cc2)cc1)Nc1ccc(Cl)cc1 [Example 87]

>  <observed property>
Ki

>  <test value>
50 to 10000 nM

$$$$
>  <compound>
N=C(/C=C/c1ccc(OC(F)(F)F)cc1)Nc1ccc(Cl)cc1 [Example 4]

>  <observed property>
Ki

>  <test value>
50 to 10000 nM

$$$$
>  <compound>
N=C(/C=C/c1ccc(-c2cccc(F)c2)cc1)Nc1ccc(Cl)cc1 [Example 58]

>  <observed property>
Ki

>  <test value>
10 to 50 nM

$$$$

# next compound below
Complete the entry with Ki for N=C(CCc1ccc(Cc2c[nH]cn2)cc1)Nc1ccc(Cl)cc1 [Example 134]
50 to 10000 nM
